Where do these numbers come from? They come from PubChem BioAssay.

In this section we review reported composite z-score values for a set of compounds.
Procedure Summary: binders of probe aFST on microarray, primary screen, stem cell growth factor project, biochemical, small-molecule microarray, fluorescence 635/667 (AID 1086);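 further: score merges 667 nm fluorescence with signal-to-noise of each printed compound spot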
Assay Context: higher = more signal
Number only, please.

Recorded composite z-score, per entry:
{"columns": ["Compound", "Observed Value"],
 "data": [
  ["CC(=O)OC[C@H]1O[C@H](C#CCCc2ccccc2)C=C[C@@H]1OC(C)=O", 0.302],
  ["CCN1C(=O)[C@H]2[C@H]3[C@H](O)[C@H](O)CC(=NNC(=O)OCc4ccccc4)[C@@H]3CC[C@H]2C1=O", 0.302],
  ["CSCC[C@@H]1NC(=O)CC=C[C@@H](C)COC(=O)[C@H](C)COC1=O", -0.242]
]}

composite z-score reported for this compound `COC(=O)CC=C[C@@H](C)[C@@H](C=NOC[C@@H](C)[C@H](OCc1ccccc1)C(C)C)OC` : -0.0348

Please fill in: composite z-score reported for `COc1cccc([C@H]2Oc3ccc(OC)cc3C(=NO[C@@H](C)c3cc(-c4c(C)cc(C)cc4C)no3)[C@@H]2O)c1` = -0.391

What the record says about CCOC(=O)[C@H](CC(C)C)NC(=O)CCC1CC(OC(=O)NCCc2ccc(F)cc2)CC2(CCCC(COC(=O)NCCCN3CCCC3=O)O2)O1 (some centres not stated) : composite z-score is -0.015

`CCOC(=O)CCN1C(=O)[C@H]2[C@H]3[C@H](O)[C@H](O)CC(=NO[C@@H]4O[C@H](CO)[C@@H](O)[C@H](O)[C@H]4O)[C@@H]3CC[C@H]2C1=O` has a reported composite z-score of 0.675

Record `CCOC(=O)CCN1C(=O)[C@H]2[C@H]3[C@H](O)[C@H](O)CC(=O)[C@@H]3CC[C@H]2C1=O` , field composite z-score: 0.658

Per the record, C=CC[C@@H]1C=CC(ON=C(C)C)[C@@H](CO)O1 (some centres not stated) has composite z-score of -0.238

Just so you know, measured composite z-score for `C[C@H]1CC[C@H]2C(=O)N[C@H](Cc3ccccc3)C(=O)N2[C@@H]1c1ccccc1` came out at 0.0175

// recorded composite z-score for `O=C1[C@H]2[C@H]3[C@H](O)[C@H](O)CC(=NO[C@@H]4O[C@H](CO)[C@@H](O)[C@H](O)[C@H]4O)[C@H]3CC[C@H]2C(=O)N1C[C@@H]1CCCO1` : 0.045

Quick note, composite z-score for `CC=CC1=C(CO)[C@H](O)[C@H]2O[C@H]2[C@@H]1O` landed at 0.133

###

Procedure Summary: splicing luciferase reporter signal modulators, primary screen, spliceosome inhibition project, cell-based, HEK293, splice +/- reporter (AID 1101);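 further: HEK293 cells carrying a splicing-competent luciferase reporter gene; test concentration not given here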
Assay Context: luminescence, 24 h, called active from +8 up or from −8 down
Calls of active or inactive are those of the source.
Your answer must be one of the following: True = active, False = inactive

{"columns": ["Compound", "Label Class"],
 "data": [
  ["COC(=O)[C@@H]1CC[C@H](C)[C@@H](c2ccc(Br)cc2)N1C[C@@H](O)CN=[N+]=[N-]", "False"],
  ["COC(=O)CC=C[C@@H](C)[C@@H](C=NOC[C@@H](O)COCc1ccco1)OC", "False"],
  ["CCOC(=O)[C@H](Cc1ccccc1)NC(=O)CCC1CC(OC(=O)NCc2cccc3ccccc23)CC2(CCCC(COC(=O)NCc3ccc4c(c3)OCO4)O2)O1 (some centres not stated)", "False"],
  ["CC(CCN1CCCc2nc(C)c(C)cc21)=NO[C@H](C)c1cn([C@@H]2COC[C@H]2O)nn1", "False"],
  ["O=C1C[C@H](c2ccccc2)[C@H](c2ccc(Br)cc2)O1", "False"]
]}

Ask: # outcome recorded in this test, key = C=CC[C@@H]1C=CC(ON=C(C)C)[C@@H](CO)O1 (some centres not stated)
Reply: False

Ask: Assay outcome for `CC(CCC(=O)OC[C@H]1O[C@H](C#Cc2ccccc2)C=C[C@@H]1Oc1ccc(C)cc1)=NOC[C@@H](C)[C@H](OCc1ccccc1)C(C)C` : what was it?
Reply: False

Ask: Hey, what did the test say about CCOC(=O)[C@H](CC(C)C)NC(=O)CCC1CC(OC(=O)NCCc2ccc(F)cc2)CC2(CCCC(COC(=O)NCc3cccc(C(F)(F)F)c3)O2)O1 (some centres not stated) ?
Reply: False

Ask: Look up the recorded call for CCOC(=O)[C@H](CC(C)C)NC(=O)CCC1CC(OC(=O)NCCc2ccc(F)cc2)CC2(CCCC(COC(=O)NCCOC)O2)O1 (some centres not stated) in this test.
Reply: False

Ask: Which outcome was entered for the compound `CO[C@H]1COC(=O)CC=C[C@H](C)[C@H](OC)COC(=O)[C@@H](C)NC(=O)CC=C[C@@H]1C` in this test?
Reply: False

Ask: How was `CCN1C(=O)[C@H]2[C@@H]3C(=CC[C@H]2C1=O)C(=O)[C@H]1O[C@H]1[C@H]3O` classified in this test?
Reply: True

Ask: Short answer needed: outcome of this test for `CC(C)CON=C1[C@H]2CCn3c(=O)n(C)c(=O)n3[C@H]2[C@H](O)[C@@H]2O[C@H]12` ?
Reply: False

Ask: Given `CC(CCN1CCc2nc(-c3ccccc3)c(-c3ccccc3)cc2C1)=NO[C@@H](C)c1cc(-c2c(C)cc(C)cc2C)no1` , state the outcome it received in this test.
Reply: False

Ask: Per the records of this test, what outcome belongs to `CC(C)=CCCC(C)=CCON=C1C[C@@H](O)[C@@H](O)[C@@H]2[C@@H]3C(=O)N(c4cccc(Oc5ccccc5)c4)C(=O)[C@@H]3CC[C@H]12` ?
Reply: False
